molecular target: Cannabinoid receptor 1 (Homo sapiens); test: Percent inhibition of specific binding of [3H]CP-55940 towards human cannabinoid receptor 1 from Chinese hamster ovary cell membranes at the concentration of 10 uM
Outcome: criterion met for inhibition of at least 20%; criterion not met for anything lower.

Smiles Record	Class Label
CCCCCCCCCCCCCCCC(=O)NCC(C)C	criterion not met
CCCCCCCCCCCCCCCC(=O)NCc1ccc(C)cc1	criterion not met
CCCCCCCCCCCCCCCC(=O)NCCCl	criterion met
C=CCNC(=O)CCCCCCCCCCCCCCC	criterion not met
CCCCCCCCCCCCCCCC(=O)NC1CCCC1	criterion met
CCCCCCCCCCCCCCCC(=O)NCCBr	criterion met
CCCCCCCCCCCCCCCC(=O)NCCCO	criterion not met
CCCCCCCCCCCCCCCC(=O)NC1CC1	criterion not met
